biological target: Dual specificity tyrosine-phosphorylation-regulated kinase 1A (Homo sapiens, UniProt Q13627); format: functional;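 note: measured against DYRK1A as one member of a broad kinome profiling panel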
The source made the active and inactive calls.
Outcome (select one): active, inactive

Q: Which outcome was entered for the compound CCC1CC(NS(=O)(=O)C2CC2)CC1c1ncc2cnc3[nH]ccc3n12 (centres undefined) in this test?
Ans: inactive

Q: Same read-out for O=c1[nH]c2cc(Br)cnc2[nH]1 ?
Ans: active

Q: Same read-out for O=C(Nc1cccc(C(F)(F)F)n1)Nc1ccnc2cc(OC(F)F)ccc12 ?
Ans: inactive

Q: Same read-out for O=C(Nc1cccc(C(F)(F)F)n1)Nc1ccnc2cc(Cl)ccc12 ?
Ans: inactive

====

For each entry below, report its IC50 value.
molecular target: Mannose-6-phosphate isomerase (Homo sapiens); assay: human PMI inhibitors, high substrate, primary screen, biochemical, fluorescence intensity, high mannose 6-phosphate (AID 1220)
Sequence (P34949 whole entry): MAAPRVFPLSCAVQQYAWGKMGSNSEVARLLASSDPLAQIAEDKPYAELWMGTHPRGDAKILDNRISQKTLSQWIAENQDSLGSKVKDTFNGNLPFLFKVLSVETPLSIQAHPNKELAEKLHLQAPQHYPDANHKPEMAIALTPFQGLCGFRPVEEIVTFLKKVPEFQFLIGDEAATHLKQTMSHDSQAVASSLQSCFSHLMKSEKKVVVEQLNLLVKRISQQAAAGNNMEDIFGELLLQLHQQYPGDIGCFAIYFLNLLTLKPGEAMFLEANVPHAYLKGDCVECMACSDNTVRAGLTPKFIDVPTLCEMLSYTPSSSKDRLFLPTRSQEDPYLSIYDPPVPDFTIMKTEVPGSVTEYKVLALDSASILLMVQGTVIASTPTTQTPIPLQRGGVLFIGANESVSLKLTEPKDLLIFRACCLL
Where a name gives a salt, the structure may show the parent alone. Calls of active or inactive are those of the source.

Q: # input molecule: Nc1cc2nn(-c3ccccc3)nc2cc1Cl ; wanted: its IC50
Ans: > 50 µM (not active)

Q: Same read-out for O=C(CCNc1ccc(Cc2ccncc2)cc1)c1ccc([N+](=O)[O-])cc1 ?
Ans: 15.8 µM (active)

Q: Same read-out for CN1CCc2cccc3c2[C@H]1Cc1ccc(O)c(O)c1-3 [APOMORPHINE HYDROCHLORIDE] ?
Ans: 14.6 µM (active)

Q: Same read-out for Nc1cccnc1Sc1cccc(Cl)c1 ?
Ans: > 50 µM (not active)

For the next question, use this molecule.
Q: # input molecule: Cc1ccccc1NCc1ccc(O)c2ncccc12 ; wanted: its IC50
Ans: 11.5 µM (active)
